Documented Kd across a set of binders
# TARGET: C. difficile toxin A from strain VPI10463 (ATCC 43255), toxinotype 0 (Clostridium difficile, UniProt P16154 1-2710)
# Sequence (P16154 whole entry): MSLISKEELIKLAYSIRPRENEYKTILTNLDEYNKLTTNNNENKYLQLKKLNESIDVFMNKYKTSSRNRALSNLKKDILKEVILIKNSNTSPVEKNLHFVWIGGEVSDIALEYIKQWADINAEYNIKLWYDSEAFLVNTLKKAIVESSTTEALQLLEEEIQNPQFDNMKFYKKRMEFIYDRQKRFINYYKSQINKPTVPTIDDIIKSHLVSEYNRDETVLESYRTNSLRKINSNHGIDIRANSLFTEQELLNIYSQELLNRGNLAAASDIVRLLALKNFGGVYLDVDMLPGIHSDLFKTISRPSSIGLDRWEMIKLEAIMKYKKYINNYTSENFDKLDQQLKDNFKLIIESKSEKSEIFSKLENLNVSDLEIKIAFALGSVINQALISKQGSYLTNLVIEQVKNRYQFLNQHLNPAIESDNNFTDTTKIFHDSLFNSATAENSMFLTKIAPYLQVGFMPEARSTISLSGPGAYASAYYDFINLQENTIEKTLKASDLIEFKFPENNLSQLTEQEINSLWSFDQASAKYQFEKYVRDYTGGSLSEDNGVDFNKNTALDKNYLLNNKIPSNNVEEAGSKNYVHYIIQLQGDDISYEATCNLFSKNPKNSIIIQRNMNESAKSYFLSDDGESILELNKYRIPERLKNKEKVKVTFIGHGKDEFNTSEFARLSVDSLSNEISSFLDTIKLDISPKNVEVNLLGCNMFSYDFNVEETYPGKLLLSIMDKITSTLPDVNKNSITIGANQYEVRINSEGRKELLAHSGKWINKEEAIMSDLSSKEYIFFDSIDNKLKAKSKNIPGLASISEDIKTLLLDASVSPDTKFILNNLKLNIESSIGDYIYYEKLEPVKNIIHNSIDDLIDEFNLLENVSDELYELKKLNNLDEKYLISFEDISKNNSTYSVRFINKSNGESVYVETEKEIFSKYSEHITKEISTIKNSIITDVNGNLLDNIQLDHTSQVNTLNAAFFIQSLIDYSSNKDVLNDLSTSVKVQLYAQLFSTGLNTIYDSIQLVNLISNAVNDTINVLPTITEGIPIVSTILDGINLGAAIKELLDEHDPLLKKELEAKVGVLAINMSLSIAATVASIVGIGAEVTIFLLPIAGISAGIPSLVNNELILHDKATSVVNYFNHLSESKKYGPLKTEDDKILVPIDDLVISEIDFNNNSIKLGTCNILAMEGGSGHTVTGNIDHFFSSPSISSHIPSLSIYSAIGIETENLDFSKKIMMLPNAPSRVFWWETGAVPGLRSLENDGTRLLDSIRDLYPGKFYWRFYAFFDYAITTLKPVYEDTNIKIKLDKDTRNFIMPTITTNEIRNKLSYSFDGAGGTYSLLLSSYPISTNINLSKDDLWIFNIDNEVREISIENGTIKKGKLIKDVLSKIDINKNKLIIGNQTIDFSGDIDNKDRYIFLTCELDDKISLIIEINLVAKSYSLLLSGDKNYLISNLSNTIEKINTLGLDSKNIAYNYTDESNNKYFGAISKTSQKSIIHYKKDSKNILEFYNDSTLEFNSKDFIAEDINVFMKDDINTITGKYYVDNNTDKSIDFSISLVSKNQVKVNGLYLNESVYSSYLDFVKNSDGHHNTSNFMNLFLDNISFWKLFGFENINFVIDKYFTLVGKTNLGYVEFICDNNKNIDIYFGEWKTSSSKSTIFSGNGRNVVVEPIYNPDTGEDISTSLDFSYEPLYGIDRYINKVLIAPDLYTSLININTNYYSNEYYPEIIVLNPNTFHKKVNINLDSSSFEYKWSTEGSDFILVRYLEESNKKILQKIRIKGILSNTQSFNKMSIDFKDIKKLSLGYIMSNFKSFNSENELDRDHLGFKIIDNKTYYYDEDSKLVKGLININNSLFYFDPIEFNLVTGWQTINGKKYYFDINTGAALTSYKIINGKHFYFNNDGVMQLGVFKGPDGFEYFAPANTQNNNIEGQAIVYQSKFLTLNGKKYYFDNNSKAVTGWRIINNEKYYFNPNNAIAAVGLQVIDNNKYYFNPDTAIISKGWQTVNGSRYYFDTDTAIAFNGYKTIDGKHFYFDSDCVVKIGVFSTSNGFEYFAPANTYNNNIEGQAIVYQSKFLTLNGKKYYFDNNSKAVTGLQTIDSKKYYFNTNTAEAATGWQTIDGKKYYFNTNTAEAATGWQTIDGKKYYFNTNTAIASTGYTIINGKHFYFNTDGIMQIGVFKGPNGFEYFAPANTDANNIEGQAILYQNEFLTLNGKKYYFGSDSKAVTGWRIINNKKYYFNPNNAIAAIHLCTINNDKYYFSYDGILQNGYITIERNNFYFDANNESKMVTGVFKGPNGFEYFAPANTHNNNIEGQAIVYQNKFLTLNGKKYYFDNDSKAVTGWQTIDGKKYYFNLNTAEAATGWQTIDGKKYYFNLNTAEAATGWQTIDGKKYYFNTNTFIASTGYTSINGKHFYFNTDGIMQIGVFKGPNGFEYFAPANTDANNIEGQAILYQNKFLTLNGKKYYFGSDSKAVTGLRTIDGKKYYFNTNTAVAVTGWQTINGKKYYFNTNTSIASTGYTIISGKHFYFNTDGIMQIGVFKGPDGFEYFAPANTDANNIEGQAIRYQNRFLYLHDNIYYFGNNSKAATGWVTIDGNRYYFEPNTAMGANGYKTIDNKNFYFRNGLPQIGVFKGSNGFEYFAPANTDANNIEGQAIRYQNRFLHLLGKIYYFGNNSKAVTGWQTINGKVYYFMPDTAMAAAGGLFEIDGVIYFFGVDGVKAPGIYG
# EXPERIMENTAL PROTOCOL: BLI (Octet Red96), antibody on Protein A sensor, toxin in solution
MEASURED PARAMETER: Kd

binder="A1 antibody (antibody, V domains shown) VH: QVHLQESGPGLVKPSETLSLTCTVSGDSISTYYWSWIRQPPGKGLEWIGYVYYTGSTNYSPSLEGRVTLSVDTSKNQFSLKLNSVSAADTAVYYCARGAAEWLRFRGFFDYWGQGILVSVSS VL: EVVLTQSPGTLSLSPGERATLSCRASQSVTNGFLAWYQQKPGQAPRVLIYGASSRATGIPDRFSGSGSGTDFTLTISRLEPEDFAMYYCQQYGLSGTFGQGTKLEIKR" reported_value="< 10 pM"
binder="A3 antibody (antibody, V domains shown) VH: MQLLESGGGLVKPGGSLRLSCAASGFTFSNAWMSWVRQGPGKGLEWVGRIKSKTDGGTTDYAAPVKGRFSISRNDSNNTLFLQMNSLKTEDTAVYYCTTGPQIVVVAGATSRDQPNYYYYGLDVWGLGTTVTVSS VL: QSVLTQPPSASGTPGQRVTISCSGSSSNIGINTVNWYQQLPGTAPKLLIYKSNLRPSGVPDRFSGSKSGTSASLAISGLRSEDEADYYCAAWDDSLTGLYVFGTGTKVTVLG" reported_value="461 pM"
